Measured values drawn from patent US20230348616A1 for this set.

target: T1, 9A; experiment: flow cytometry on peptide-pulsed T2 cells, scFv 100 nM
T1 construct: also called HLA-A2 / point-mutant NY-ESO peptide 9A complex on T2 cells

binder	standardized gMFI
NYA-2048 (scFv, also called NYA-2048 tag adduct) scFv: GQVQLVESGGGVVQPGRSLRLSCAASGFSIRSYDMHWVRQAPGKGLEWVATISYDGSQKYYADSVKGRFTISRDNSKNTLYLQMSSLRAEDTAVYHCARGSSGHYEAFDIWGQGTLVTVSSGGGGSGGGGSGGGGSQSVLTQPPSASGTPGQRVTISCSGSSSNIGNWYVSWYQQLPGTAPKLLIYDNNKRPSGVPDRFSGSKSGTSASLAISGLQSEDEADYYCGTWDSSLSAPWVFGGGTKLTVLGAAAGAGGDYKDDDDKGAAAHHHHHH	7.75
NYA-2047 (scFv) scFv: GQVQLVESGGGVVQPGRSLRLSCAASGFSIRSYDMHWVRQAPGKGLEWVATISYDGSQKYYADSVKGRFTISRDNSKNTLYLQMSSLRAEDTAVYHCARGSSGHYEAFDIWGQGTLVTVSSGGGGSGGGGSGGGGSQSVLTQPPSVSAAPGQKVTISCSGSSSNIGNWYVSWYQQLPGTAPKLLIYDNNKRPSGIPDRFSGSKSGTSATLGITGLQTGDEADYYCGTWDSSLSAPWVFGGGTKVTVLGAAAGAGGDYKDDDDKGAAAHHHHHH	9.54
NYA-2044 (scFv, also called NYA-2044 tag adduct) scFv: GEVQLVESGGGLVQPGGSLRLSCAASGFSIRSYDIHWVRLAPGKGLEWVATISYDGSQKYYADSVKGRFTISRDESKNTLYLQMNSLRAEDTAVYHCARGSSGHYEAFDIWGQGTLVTVSSGGGGSGGGGSGGGGSQSVLTQPPSVSAAPGQKVTISCSGSSSNIGNWYVSWYQQLPGTAPKLLIYDNNKRPSGIPDRFSGSKSGTSATLGITGLQTGDEADYYCGTWDSSLSAPWVFGGGTKVTVLGAAAGAGGDYKDDDDKGAAAHHHHHH	15.6
